Overview of reported Ki across a group of molecules:
SYSTEM_TESTED: Trypsin (Homo sapiens, UniProt P07477+P07478+P35030)
ASSAY_COMMENT: Inhibition of trypsin (unknown origin) using S-2222 as substrate incubated for 15 mins prior to substrate addition measured every 10 secs by spectrophotometric analysis
Type: protein assay

>  <MOLECULE>
CCOC(=O)C1(C)CCCN(c2ccc(N3C[C@H](CNC(=O)c4cnc(N)s4)OC3=O)cc2)C1=O.O=C(O)C(F)(F)F (stereo partly specified)

>  <Ki>
> 100 µM

$$$$
>  <MOLECULE>
CCOC(=O)C1CCCN(c2ccc(N3C[C@H](CNC(=O)c4cnc(N)s4)OC3=O)cc2)C1.O=C(O)C(F)(F)F (stereo partly specified)

>  <Ki>
> 100 µM

$$$$
>  <MOLECULE>
CCOC(=O)C1CCN(c2ccc(N3C[C@@H](CNC(=O)c4ccc(Cl)c(N)c4)OC3=O)cc2)CC1

>  <Ki>
> 100 µM

$$$$
>  <MOLECULE>
Nc1ncc(C(=O)NC[C@H]2CN(c3ccc(N4CCCC(C(=O)O)C4)cc3)C(=O)O2)s1.O=C(O)C(F)(F)F (stereo partly specified)

>  <Ki>
> 100 µM

$$$$
>  <MOLECULE>
Nc1ncc(C(=O)NC[C@@H]2CN(c3ccc(N4CCC(C(=O)O)CC4)cc3)C(=O)O2)s1.O=C(O)C(F)(F)F

>  <Ki>
> 100 µM

$$$$
>  <MOLECULE>
CC1(C(=O)O)CCCN(c2ccc(N3C[C@H](CNC(=O)c4cnc(N)s4)OC3=O)cc2)C1=O.O=C(O)C(F)(F)F (stereo partly specified)

>  <Ki>
> 100 µM

$$$$
>  <MOLECULE>
O=C(NC[C@H]1CN(c2ccc(N3CCC(C(=O)O)CC3)cc2)C(=O)O1)c1ccc(-c2noc(=O)[nH]2)cc1

>  <Ki>
> 100 µM

$$$$
>  <MOLECULE>
O=C(NC[C@@H]1CN(c2ccc(N3CCC(C(=O)O)CC3)cc2)C(=O)O1)c1ccc(-c2noc(=O)[nH]2)cc1

>  <Ki>
> 100 µM

$$$$
>  <MOLECULE>
O=C(O)C1CCN(c2ccc(N3C[C@H](CNCc4ccc(-c5noc(=O)[nH]5)cc4)OC3=O)cc2)CC1

>  <Ki>
> 100 µM

$$$$
>  <MOLECULE>
Nc1ncc(C(=O)NC[C@H]2CN(c3ccc(N4CCC(C(=O)O)CC4)cc3)C(=O)O2)s1.O=C(O)C(F)(F)F

>  <Ki>
> 100 µM

$$$$
>  <MOLECULE>
CCOC(=O)C1CCN(c2ccc(N3C[C@@H](CNC(=O)c4cnc(N)s4)OC3=O)cc2)CC1.O=C(O)C(F)(F)F

>  <Ki>
> 100 µM

$$$$
>  <MOLECULE>
CC(=O)O.N=C(N)c1ccc(C(=O)NC[C@H]2CN(c3ccc(N4CCC(C(=O)O)CC4)cc3)C(=O)O2)cc1

>  <Ki>
8.95 µM

$$$$
>  <MOLECULE>
CC(=O)O.CCOC(=O)C1CCN(c2ccc(N3C[C@@H](CNCc4ccc(C(=N)N)cc4)OC3=O)cc2)CC1

>  <Ki>
6.59 µM

$$$$
>  <MOLECULE>
CC(=O)O.CCOC(=O)C1CCN(c2ccc(N3C[C@H](CNC(=O)c4ccc(C(=N)N)cc4)OC3=O)cc2)CC1

>  <Ki>
5.65 µM

$$$$
>  <MOLECULE>
Nc1cc(C(=O)NC[C@@H]2CN(c3ccc(N4CCC(C(=O)O)CC4)cc3)C(=O)O2)ccc1Cl

>  <Ki>
> 100 µM

$$$$
>  <MOLECULE>
CCOC(=O)C1CCN(c2ccc(N3C[C@H](CNC(=O)c4cnc(N)s4)OC3=O)cc2)C(=O)C1.O=C(O)C(F)(F)F (stereo partly specified)

>  <Ki>
> 100 µM

$$$$
>  <MOLECULE>
CCOC(=O)C1CCN(c2ccc(N3C[C@H](CNC(=O)c4cnc(N)s4)OC3=O)cc2)CC1.O=C(O)C(F)(F)F

>  <Ki>
> 100 µM

$$$$
>  <MOLECULE>
CCOC(=O)C1CCN(c2ccc(N3C[C@H](CNC(=O)c4ccc(Cl)c(N)c4)OC3=O)cc2)CC1

>  <Ki>
> 100 µM

$$$$
>  <MOLECULE>
O=C(O)C1CCN(c2ccc(N3C[C@@H](CNCc4ccc(-c5noc(=O)[nH]5)cc4)OC3=O)cc2)CC1

>  <Ki>
> 100 µM

$$$$
>  <MOLECULE>
O=C(NC[C@H]1CN(c2ccc(N3CCC(C(=O)O)CC3)cc2)C(=O)O1)c1ccc(Cl)c(-c2noc(=O)[nH]2)c1

>  <Ki>
> 100 µM

$$$$
>  <MOLECULE>
Nc1cc(C(=O)NC[C@H]2CN(c3ccc(N4CCC(C(=O)O)CC4)cc3)C(=O)O2)ccc1Cl

>  <Ki>
> 100 µM

$$$$
>  <MOLECULE>
CC(=O)O.CCOC(=O)C1CCN(c2ccc(N3C[C@@H](CNC(=O)c4ccc(C(=N)N)cc4)OC3=O)cc2)CC1

>  <Ki>
3.06 µM

$$$$
>  <MOLECULE>
CC(=O)O.N=C(N)c1ccc(C(=O)NC[C@@H]2CN(c3ccc(N4CCC(C(=O)O)CC4)cc3)C(=O)O2)cc1

>  <Ki>
3.79 µM

$$$$
>  <MOLECULE>
CC(=O)O.N=C(N)c1ccc(CNC[C@H]2CN(c3ccc(N4CCC(C(=O)O)CC4)cc3)C(=O)O2)cc1

>  <Ki>
17.8 µM

$$$$
>  <MOLECULE>
CCOC(=O)C1CCCCN1c1ccc(N2C[C@H](CNC(=O)c3cnc(N)s3)OC2=O)cc1.O=C(O)C(F)(F)F (stereo partly specified)

>  <Ki>
> 100 µM

$$$$
>  <MOLECULE>
CC(=O)O.CCOC(=O)C1CCN(c2ccc(N3C[C@H](CNCc4ccc(C(=N)N)cc4)OC3=O)cc2)CC1

>  <Ki>
2.17 µM

$$$$
